System: HT-1080
Protocol summary: Antiproliferative activity against human HT1080 cells at 30 uM after 24 hrs by MTT assay
Type: functional
Particulars: HT-1080, 24 h
// inhibition at 30 µM lookup, one value per entry

- Smiles representation: "O=c1c(-c2ccc(O)cc2)coc2cc(O)cc(O)c12"
  System tested: "HT-1080"
  Output unit: "%"
  inhibition at 30 µM: 12.5
- Smiles representation: "C=C(C)[C@H]1Cc2c(ccc3c2O[C@@H]2COc4cc(OC)c(OC)cc4[C@@H]2C3=O)O1"
  System tested: "HT-1080"
  Output unit: "%"
  inhibition at 30 µM: 0.7
- Smiles representation: "CC(=O)O[C@H]1C(=O)[C@@]2(C)[C@H]([C@H](OC(=O)c3ccccc3)[C@]3(O)C[C@H](OC(=O)[C@H](O)[C@@H](NC(=O)c4ccccc4)c4ccccc4)C(C)=C1C3(C)C)[C@]1(OC(C)=O)CO[C@@H]1C[C@@H]2O"
  System tested: "HT-1080"
  Output unit: "%"
  inhibition at 30 µM: 10.3
- Smiles representation: "COc1cc2c(cc1OC)[C@@H]1C(=O)c3ccc4c(c3O[C@@H]1CO2)C=CC(C)(C)O4"
  System tested: "HT-1080"
  Output unit: "%"
  inhibition at 30 µM: 10.9
- Smiles representation: "COc1cc2c(cc1OC)[C@]1(O)C(=O)c3ccc4c(c3O[C@@H]1CO2)C=CC(C)(C)O4"
  System tested: "HT-1080"
  Output unit: "%"
  inhibition at 30 µM: 3.8
- Smiles representation: "C=C(C)[C@H]1Cc2c(ccc3c2O[C@@H]2COc4cc(OC)c(OC)cc4[C@]2(O)C3=O)O1"
  System tested: "HT-1080"
  Output unit: "%"
  inhibition at 30 µM: 5.5
